Target: WT SARS-CoV-2 RBD (SARS-CoV-2, UniProt P0DTC2 14-1211)
Assay: ELISA
This section presents binders with their documented Kd values.
metric: Kd

AP1C3 (VHH) VHH: EVQLQASGGGFVQPGGSLRLSCAASGRTYRGYSMGWFRQAPGKEREFVSAISSWSDDWTAYADSVKGRFTISRDNSKNTVYLQMNSLRAEDTATYYCAWQYIDEIQYYWGQGTQVTVSS = 0.08 nM
AP1A5 (Fc fusion) EVQLQASGGGFVQPGGSLRLSCAASGSTASHYTMGWFRQAPGKEREFVSAISSGRDHAKQYADSVKGRFTISRDNSKNTVYLQMNSLRAEDTATYYCAYEEINATQKDTLYWGQGTQVTVSS = 1.19 nM
AP1D4 (Fc fusion) EVQLQASGGGFVQPGGSLRLSCAASGHTFDAHRMGWFRQAPGKEREFVSAISSWGQSSTYYADSVKGRFTISRDNSKNTVYLQMNSLRAEDTATYYCAQTDEGNQYVYWGQGTQVTVSS = 0.97 nM
DP4F2 (VHH) VHH: EVQLQASGGGFVQPGGSLRLSCAASGTTYSERVMGWFRQAPGKEREFVSAISSGQSDQTYYADSVKGRFTISRDNSKNTVYLQMNSLRAEDTATYYCAPFAGDANLPREWYWGQGTQVTVSS = 10.7 nM
BP2A6 (VHH) VHH: EVQLQASGGGFVQPGGSLRLSCAASGQTFSHYIMGWFRQAPGKEREFVSAISAGQGHATYYADSVKGRFTISRDNSKNTVYLQMNSLRAEDTATYYCAKYQDTIAPLYWGQGTQVTVSS = 0.06 nM

The reported numbers originate from paper PMC11793827.
